- Test system: RXF 393
- Assay summary: NCI tumour cell line growth inhibition, 48 h
Calls of active or inactive are those of the source. Rule as the data show it: active = GI50 up to about 1.1 µM and inactive = higher.
Measurement name: GI50

>>> reported_value("Cc1nc(Nc2ccccc2Cl)sc1C(=O)CC(=O)C(N)=O")
"48.8 µM (inactive)"

Entry O=C(CCc1nnc2s/c(=C\c3ccc([N+](=O)[O-])cc3)c(=O)n12)Nc1ccc(Cl)c(Cl)c1 — recorded GI50 = 18.2 µM (inactive)

Entry O=C1CCC(c2nc3cc(Cl)ccc3o2)C(=O)N1 (stereo unspecified) — recorded GI50 = > 100 µM (inactive)

Entry O=C1C(SCCO)=C(SCCO)C(=O)c2ccccc21 — recorded GI50 = 1.33 µM (inactive)

Entry CC(C)(C)c1ccc(O)c(Br)c1 — recorded GI50 = 34.1 µM (inactive)

Entry COc1cc(N(CCC#N)CCC#N)ccc1/C=N\NC(=O)c1ccc(C)cc1 — recorded GI50 = > 100 µM (inactive)
